From: patent US6914045B2

This listing pairs compounds with measured MIC Staphylococcus aureus (GC 4544).
test system: Staphylococcus sp.; assay: in vitro antibacterial evaluation, MIC by broth dilution; format: cell-based; conditions: strain GC 4544; broth dilution, 18 hours at 35° C.
// note: answer is a bare numeric in µg/mL

These solved cases illustrate the format of a correct answer.
Compound	Measurement label	Readout value
CCCC(CCC)C(=O)OCC1OC(Oc2ccc(CC3NC(=O)C(C(C)c4ccccc4)NC(=O)CNC(=O)C(CO)NC(=O)C(C(O)C4CNC(=N)N4C4OC(CO)C(O)C(O)C4O)NC(=O)C(C(O)C4CNC(=N)N4)NC3=O)cc2)C(O)C(O)C1OC1OC(CO)C(O)C(O)C1O (centres unmarked) [Example 99b]	MIC Staphylococcus aureus (GC 4544)	4
CC(c1ccccc1)C1NC(=O)CNC(=O)C(CO)NC(=O)C(C(O)C2CN(Cc3ccc(C(C)(C)C)cc3)C(=N)N2C2OC(CO)C(O)C(O)C2O)NC(=O)C(C(O)C2CNC(=N)N2)NC(=O)C(Cc2ccc(OC3OC(CO)C(OC4OC5COC6(OC5C(O)C4O)C4CC5CC(C4)CC6C5)C(O)C3O)cc2)NC1=O (centres unmarked)	MIC Staphylococcus aureus (GC 4544)	16

Next item in the queue.
Problem: Note MIC Staphylococcus aureus (GC 4544) for the compound shown: CC(c1ccccc1)C1NC(=O)CNC(=O)C(CO)NC(=O)C(C(O)C2CNC(=N)N2C2OC(CO)C(O)C(O)C2O)NC(=O)C(C(O)C2CNC(=N)N2)NC(=O)C(Cc2ccc3oc(SCC(=O)c4ccccc4)nc3c2)NC1=O (centres unmarked)
Solution: 16
